Data provenance is patent EP2982368A1.

Test target: FAK/Paxillin (Mus musculus, UniProt P34152+Q8VI36)
Construct: expressed in transfected cells; host or cells: mouse fibroblasts stably expressing GFP-FAK
Sequence (P34152 whole entry): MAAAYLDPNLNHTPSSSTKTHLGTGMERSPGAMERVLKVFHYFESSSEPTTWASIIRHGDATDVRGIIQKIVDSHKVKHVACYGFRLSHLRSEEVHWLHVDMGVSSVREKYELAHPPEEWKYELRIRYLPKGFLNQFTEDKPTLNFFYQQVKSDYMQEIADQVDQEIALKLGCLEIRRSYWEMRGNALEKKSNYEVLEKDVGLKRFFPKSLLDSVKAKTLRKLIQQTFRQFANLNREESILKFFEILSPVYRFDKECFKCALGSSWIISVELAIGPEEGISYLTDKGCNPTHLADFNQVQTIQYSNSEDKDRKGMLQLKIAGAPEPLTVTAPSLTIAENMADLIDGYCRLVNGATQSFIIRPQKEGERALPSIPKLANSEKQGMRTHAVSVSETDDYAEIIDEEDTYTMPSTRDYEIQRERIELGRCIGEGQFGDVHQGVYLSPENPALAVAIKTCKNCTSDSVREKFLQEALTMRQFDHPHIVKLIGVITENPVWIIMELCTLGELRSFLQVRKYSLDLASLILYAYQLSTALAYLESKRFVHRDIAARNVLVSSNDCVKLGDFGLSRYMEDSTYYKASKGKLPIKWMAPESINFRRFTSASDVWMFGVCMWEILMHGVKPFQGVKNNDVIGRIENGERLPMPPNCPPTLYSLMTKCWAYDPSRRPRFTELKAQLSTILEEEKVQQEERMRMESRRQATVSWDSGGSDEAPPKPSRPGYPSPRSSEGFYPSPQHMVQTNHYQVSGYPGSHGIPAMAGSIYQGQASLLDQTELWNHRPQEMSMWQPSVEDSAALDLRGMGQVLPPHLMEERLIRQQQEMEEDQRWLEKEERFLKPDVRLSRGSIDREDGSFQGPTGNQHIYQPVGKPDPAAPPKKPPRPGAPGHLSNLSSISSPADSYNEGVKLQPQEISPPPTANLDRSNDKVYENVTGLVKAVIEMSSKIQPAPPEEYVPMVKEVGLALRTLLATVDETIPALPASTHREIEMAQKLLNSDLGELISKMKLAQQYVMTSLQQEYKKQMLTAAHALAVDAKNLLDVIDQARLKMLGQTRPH
Sequence (Q8VI36 whole entry): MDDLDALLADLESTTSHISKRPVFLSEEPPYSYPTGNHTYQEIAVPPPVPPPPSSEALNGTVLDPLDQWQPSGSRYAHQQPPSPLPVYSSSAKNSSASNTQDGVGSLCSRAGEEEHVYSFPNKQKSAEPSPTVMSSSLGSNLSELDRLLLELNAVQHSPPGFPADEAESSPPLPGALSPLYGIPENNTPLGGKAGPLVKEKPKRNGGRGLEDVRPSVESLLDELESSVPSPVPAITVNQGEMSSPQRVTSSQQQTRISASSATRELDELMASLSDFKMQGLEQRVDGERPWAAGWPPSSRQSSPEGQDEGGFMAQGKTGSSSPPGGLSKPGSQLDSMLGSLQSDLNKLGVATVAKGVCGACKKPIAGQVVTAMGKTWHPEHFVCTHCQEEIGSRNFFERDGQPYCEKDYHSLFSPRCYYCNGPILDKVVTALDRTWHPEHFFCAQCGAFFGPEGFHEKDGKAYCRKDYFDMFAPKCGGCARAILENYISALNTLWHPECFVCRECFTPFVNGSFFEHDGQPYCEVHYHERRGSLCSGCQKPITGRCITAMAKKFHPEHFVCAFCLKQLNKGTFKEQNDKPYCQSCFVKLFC
Protocol summary: FAK/Paxillin displacement by structurally related compounds (FootLocker series, confocal microscopy)
Format: cell-based
Design: key: ++ indicates displacing effect at 5 µM; + at 20 µM; - indicates no observed effect
Readout type: Activtiy (activity towards FAK/Paxillin displacement)

Example cases with answers are listed next.
| Compound | Test target | Obs value |
| --- | --- | --- |
| O=[N+]([O-])/C=C/c1c[nH]c2ccccc12 [compound 19] | FAK/Paxillin (Mus musculus, UniProt P34152+Q8VI36) | - |
| O=C(O)/C=C/c1cc(Br)cs1 [compound 24] | FAK/Paxillin (Mus musculus, UniProt P34152+Q8VI36) | - |
| O=C/C=C/c1ccc(Cl)cc1 [compound 22] | FAK/Paxillin (Mus musculus, UniProt P34152+Q8VI36) | - |
| CCOC(=O)CCCCCOc1ccc(/C=C/[N+](=O)[O-])cc1 [compound 5] | FAK/Paxillin (Mus musculus, UniProt P34152+Q8VI36) | + (+ at 20 µM) |
| O=[N+]([O-])/C=C/c1cccc(Cl)c1 [compound 12] | FAK/Paxillin (Mus musculus, UniProt P34152+Q8VI36) | + (+ at 20 µM) |

Provide the reported Activtiy (activity towards FAK/Paxillin displacement) of each entry below, same order.
1. [N-]=[N+]=NCCOCCOCCOCCNC(=O)CCCCCCOc1cccc(C=O)c1 [compound 6]
2. O=[N+]([O-])/C=C/c1cn(-c2ccccc2)c2ccccc12 [compound 20]
3. [N-]=[N+]=NCCOCCOCCOCCNC(=O)CCCCCCOc1cccc(/C=C/[N+](=O)[O-])c1 [compound 7]
4. O=[N+]([O-])/C=C/c1ccccc1O [compound 8]

## Result
["-", "-", "+ (+ at 20 µM)", "+ (+ at 20 µM)"]

Provide the reported Activtiy (activity towards FAK/Paxillin displacement) of each entry below, same order.
1. O=[N+]([O-])/C=C/c1cccc(Br)c1 [compound 11]
2. O=[N+]([O-])/C=C/c1cccnc1 [compound 18]

## Result
+ (+ at 20 µM)
+ (+ at 20 µM)
